Origin of values: the Immune Epitope Database (IEDB)

target: HLA-A*02:50; assay: IEDB peptide-MHC binding, purified MHC/competitive/fluorescence; filed as Kd, often an IC50 or EC50 that approximates it; bounds were set here for any values at or beyond the usual limits of such assays; conditions: source organism: Vibrio parahaemolyticus RIMD 2210633
pKd: −log10 of the molar value.
Quantity name: pKd

**Q:** Would you mind telling me what pKd value was observed for FQYYGIDWV ?
**A:** ≥ 10.00

----------
target: HLA-A*31:01; assay: IEDB peptide-MHC binding, purified MHC/competitive/radioactivity; filed as Kd, often an IC50 or EC50 that approximates it; bounds were set here for any values at or beyond the usual limits of such assays; settings: source organism: Lassa virus Josiah
Quantity name: Kd

**Q:** Would you mind telling me what Kd value was observed for GVVRVWDVK ?
**A:** ≥ 45 µM
